Recorded measurements of growth inhibition by drug plus 177Lu-lilotomab satetraxetan, one per entry
Test system: RIVA
Assay: growth inhibition by drug plus 177Lu-lilotomab satetraxetan (1 - RLU/untreated control) (fraction); higher = stronger inhibition
Conditions: 100 nM; time (day): 4; 177Lu-lilotomab satetraxetan 0.5 ug/ml
Just the number.

Illustrative cases are given below, each with its answer.
O=C(Nc1cccc(Cl)c1)Nc1ncc(CCNc2ncnc3ccsc23)s1; 0.481
N#CC1(c2ccc(NC(=O)c3cccnc3NCc3ccncc3)cc2)CCCC1 [Apatinib (YN968D1)]; 0.559
COc1nc(-c2ccc3c(c2)OCO3)n(-c2ccc(NC(=O)CSc3ccccc3)cc2)n1 [SecinH3]; 0.424
O=C(Nc1ncc([N+](=O)[O-])s1)c1ccc([N+](=O)[O-])c(Cl)c1; 0.655
CNC(=O)c1ccc(C)c(-n2c(C)cc(OCc3ccc(F)cc3F)c(Br)c2=O)c1; 0.458
Cc1cnc(NC(=O)Nc2cc(Br)c(C)cc2OC[C@@H]2CNCCO2)cn1; 0.216
CN1CCC(CNc2ccc3ncc(-c4cccc(OC(F)(F)F)c4)n3n2)CC1 [SGI-1776 free base]; 0.441
O=C(CCCCCCC(=O)Nc1ccccc1)NO [Vorinostat (SAHA)]; 0.578
CCn1c(-c2nonc2N)nc2cnc(Oc3cccc(NC(=O)c4ccc(OCCN5CCOCC5)cc4)c3)cc21; 0.515
CN(C)c1nc(N(C)C)nc(N(C)C)n1 [Altretamine (Hexalen)]; 0.318

For the compound COc1cc(Nc2ncc(F)c(Nc3ccc4c(n3)NC(=O)C(C)(C)O4)n2)cc(OC)c1OC [R406(free base)] , give its measured growth inhibition by drug plus 177Lu-lilotomab satetraxetan value. 0.564

For the compound Fc1cc(-c2cccc3ncc(-c4cnn(C5CCNCC5)c4)nc23)cc(F)c1CN1CCOCC1 , give its measured growth inhibition by drug plus 177Lu-lilotomab satetraxetan value. 0.589

For the compound O=C(O)c1ccc2c(c1)nc(Nc1cccc(Cl)c1)c1ccncc12 [cx-4945 (Silmitasertib)] , give its measured growth inhibition by drug plus 177Lu-lilotomab satetraxetan value. 0.47

For the compound CC1(C)CCC(c2ccc(Cl)cc2)=C(CN2CCN(c3ccc(C(=O)NS(=O)(=O)c4ccc(N[C@H](CCN5CCOCC5)CSc5ccccc5)c(S(=O)(=O)C(F)(F)F)c4)cc3)CC2)C1 [ABT-263 (Navitoclax)] , give its measured growth inhibition by drug plus 177Lu-lilotomab satetraxetan value. 0.983
